Biological target: Adenosine receptor A3 (Homo sapiens)
Sequence (P0DMS8 whole entry): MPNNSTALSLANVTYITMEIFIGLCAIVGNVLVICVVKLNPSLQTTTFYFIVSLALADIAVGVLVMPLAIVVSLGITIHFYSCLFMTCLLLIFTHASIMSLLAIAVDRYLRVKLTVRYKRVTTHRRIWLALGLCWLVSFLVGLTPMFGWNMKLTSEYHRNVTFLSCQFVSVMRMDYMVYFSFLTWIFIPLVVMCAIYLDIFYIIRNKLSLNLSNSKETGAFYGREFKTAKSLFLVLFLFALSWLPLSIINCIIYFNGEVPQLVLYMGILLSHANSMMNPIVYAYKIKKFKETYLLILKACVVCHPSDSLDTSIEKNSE
Test: Displacement of [125I]AB-MECA from human adenosine A3 receptor expressed in CHO cells
Assay type: cell-based
Property Name: Ki

Exercise: What value of measured Ki is listed for "CCc1nc2c(-c3ccccc3)cc(-c3ccccc3)nc2[nH]1" ?
Key: 8.5 nM (antagonist)

Exercise: What value of measured Ki is listed for "Cc1nc2c(-c3ccccc3)cc(-c3ccccc3)nc2[nH]1" ?
Key: 61 nM (antagonist)

Exercise: What value of measured Ki is listed for "CC(C)(C)c1nc2c(-c3ccccc3)cc(-c3ccccc3)nc2[nH]1" ?
Key: 115 nM (antagonist)

Exercise: What value of measured Ki is listed for "c1ccc(-c2cc(-c3ccccc3)c3nc(C4CCCC4)[nH]c3n2)cc1" ?
Key: 6.9 nM (antagonist)

Exercise: What value of measured Ki is listed for "CC(C)c1nc2c(-c3ccccc3)cc(-c3ccccc3)nc2[nH]1" ?
Key: 7.3 nM (antagonist)

Exercise: What value of measured Ki is listed for "CCC(CC)c1nc2c(-c3ccccc3)cc(-c3ccccc3)nc2[nH]1" ?
Key: 171 nM (antagonist)

Exercise: What value of measured Ki is listed for "c1ccc(-c2cc(-c3ccccc3)c3nc[nH]c3n2)cc1" ?
Key: 180 nM (antagonist)

Exercise: What value of measured Ki is listed for "CC(C)Cc1nc2c(-c3ccccc3)cc(-c3ccccc3)nc2[nH]1" ?
Key: 25 nM (antagonist)

Exercise: What value of measured Ki is listed for "CCCc1nc2c(-c3ccccc3)cc(-c3ccccc3)nc2[nH]1" ?
Key: 69 nM (antagonist)

Exercise: What value of measured Ki is listed for "O=c1[nH]c2nc(-c3ccccc3)cc(-c3ccccc3)c2[nH]1" ?
Key: 262 nM (antagonist)

Exercise: What value of measured Ki is listed for "c1ccc(-c2cc(-c3ccccc3)c3nc(C4CCCCC4)[nH]c3n2)cc1" ?
Key: 637 nM (antagonist)
